pIC50: −log10 of the molar value.
Consider the following pIC50 data for Dual 3',5'-cyclic-AMP and -GMP phosphodiesterase 11A (Homo sapiens), collected from several reports.
Use 6 as the dividing line for pIC50, with the line itself on the Satisfied side and lower values as Not satisfied.

                                   compound    label_class
0  COc1cc(-c2ccc(F)nc2)cc2c1nc(C)c1c(C)nc(-c3cccnc3)n12      Satisfied
1  CCCOCCn1c(=O)c(N[C@H]2CC[C@H](O)CC2)nc2cnc(-c3ccc(OC)nc3)cc21      Satisfied
2  COc1ccc(-c2nc(C(=O)NCc3ccccc3)c(CN)o2)c2ccc(C(F)(F)F)nc12  Not satisfied
3  C[C@@H](c1cc(OCC(F)F)ccn1)n1cnc2c(N)nc(Cl)nc21  Not satisfied
4  COc1ccc(C(=O)Nc2c(Cl)c[n+]([O-])cc2Cl)c2ccc(C(F)(F)F)nc12  Not satisfied
5  COc1ccc(-c2nc(C(=O)N3CCC(O)(c4ccccc4)CC3)c(CN)o2)c2ccc(C(F)(F)F)nc12      Satisfied
6  COc1ccc(-c2nc(C(=O)NCc3ccccc3Cl)c(CN)o2)c2ccc(C(F)(F)F)nc12  Not satisfied
7  O=C(Nc1ccccc1Cl)c1ccc(OC(F)F)c(OCC2CC2)c1  Not satisfied
8  COC(=O)C1Cc2cc(OC)c(OC3CCCC3)cc2CN1C(=O)c1ccc(OC(F)(F)F)cc1 (stereo unspecified)  Not satisfied
9  COc1ccc(CNc2nc(N3CC4CC4C3)ncc2C(=O)NCc2ccccn2)cc1Cl (stereo unspecified)  Not satisfied
